Target: human leukocyte elastase (hLE) (Homo sapiens, UniProt P08246)
Construct: Neutrophils (1.4 billion) were isolated from whole blood obtained from a single healthy laboratory donor; from tissue; host or cells: neutrophils from whole blood of a single healthy donor
Sequence (P08246 30-247 limits assumed): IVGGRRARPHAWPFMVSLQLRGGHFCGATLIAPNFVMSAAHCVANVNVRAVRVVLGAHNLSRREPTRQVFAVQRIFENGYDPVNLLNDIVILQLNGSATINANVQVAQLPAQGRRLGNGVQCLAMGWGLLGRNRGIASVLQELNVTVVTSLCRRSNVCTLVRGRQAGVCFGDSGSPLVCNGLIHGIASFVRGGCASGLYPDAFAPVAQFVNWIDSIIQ
Assay: In vitro inhibition of hLE (cleavage of MeOSuc-AAPV-NA)
Type: biochemical
Conditions: hLE Ki [μM], Table 2; substrate MeOSuc-AAPV-NA 200 μM, pH 7.4, 37 C
Where a SMILES comes first, the peptide text is derived from it.
Assay Readout: Ki

Compound	Ki
CC[C@H](C)[C@H](N)C(=O)N[C@@H](Cc1ccccc1)C(=O)N[C@@H](Cc1c[nH]c2ccccc12)C(=O)N[C@@H](CO)C(=O)N[C@@H](CCCCN)C(=O)N[C@@H](CC(=O)O)C(=O)N[C@H](C(=O)NCC(=O)N[C@@H](Cc1ccc(O)cc1)C(=O)N[C@@H](CO)C(=O)N[C@@H](Cc1ccccc1)C(=O)N[C@H](C(=O)O)[C@@H](C)O)[C@@H](C)CC [Peptide 12] (H-IFWSKDIGYSFT-OH)	> 200 µM

Query Ki for CC[C@H](C)[C@H](NC(=O)[C@H](CC(C)C)NC(=O)[C@@H](NC(=O)[C@@H](N)CCC(=O)O)[C@@H](C)CC)C(=O)N[C@@H](Cc1ccccc1)C(=O)N[C@@H](Cc1c[nH]c2ccccc12)C(=O)N[C@@H](CO)C(=O)N[C@@H](CCCCN)C(=O)O [Peptide 15, Glu-Ile-Leu-Ile-Phe-Trp-Ser-Lys] (H-EILIFWSK-OH)
> 200 µM

Check the records and state Ki for CC[C@H](C)[C@H](NC(=O)[C@H](CC(=O)O)NC(=O)[C@H](CCCCN)NC(=O)[C@@H](N)CO)C(=O)NCC(=O)N[C@@H](Cc1ccc(O)cc1)C(=O)N[C@@H](CO)C(=O)O [Peptide 16, Ser-Lys-Asp-Ile-Gly-Tyr-Ser] (H-SKDIGYS-OH)
> 200 µM

FYI, the data here is from patent US6528618B1.
